B1: TRAF3IP2 (parent)
chain: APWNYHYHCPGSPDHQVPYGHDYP

Variants of: B1
MEASUREMENT_NOTES: protein stability index of a GFP-peptide fusion (GPS, HEK-293T) (PSI 1-6); higher = more stable;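 also: lentivirally expressed fusions sorted by FACS into six bins by GFP to DsRed ratio, PSI derived from sequencing read proportions per bin multiplied by bin number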
PROTOCOL_CONDITIONS: c terminus: a fixed tail appended
Lab note: anything with protein stability index at or over 2 counts as class 1; the rest go in class 0.

Examples with answers:
V17Q = class 1
C9V = class 1
D22F = class 0
H21M = class 0
Y19F = class 0
D14W = class 1
H21P = class 1
P18A = class 1
D14H = class 1
S12I = class 1

I'd appreciate it if you could say whether N4D has protein stability index at least equal to 2. class 1
